System: Klebsiella pneumoniae
Conditions Used: Concentration 32 ug.mL-1; ASSAY_TEST Inhibition of Bacterial Growth; detection method Absorption (OD600); MEDIA CAMHB; plate type 384well; NBS; CORNING #3640; time 18 hr
Description: Antibacterial activity against Klebsiella pneumoniae MDR ATCC 70063 (CO-ADD:GN_003); MIC in CAMBH media using NBS plates, by OD(600)
Results with a measured potency or affinity are listed apart.

[
  {
    "Molecule": "CC(NC(=O)c1ncc([N+](=O)[O-])n1C)c1ccc(F)cc1 (stereo not given)",
    "Inhibition, %": 14.44
  },
  {
    "Molecule": "Cn1c([N+](=O)[O-])cnc1C(=O)NCc1ccc(OC(F)(F)F)cc1",
    "Inhibition, %": 21.15
  },
  {
    "Molecule": "Cn1c([N+](=O)[O-])cnc1C(=O)NCc1ccc(F)cc1",
    "Inhibition, %": 15.94
  },
  {
    "Molecule": "Cn1c([N+](=O)[O-])cnc1C(=O)NC1CC1",
    "Inhibition, %": 0.14
  },
  {
    "Molecule": "Cn1c([N+](=O)[O-])cnc1C(=O)NCc1cccc(OC(F)(F)F)c1",
    "Inhibition, %": 27.4
  }
]

---

Tested on: Cryptococcus neoformans
Conditions Used: Concentration 32 ug.mL-1; ASSAY_TEST Inhibition of Fungal Growth; detection method Resazurin; Absorption (OD600-OD570); plate type 384well; NBS; CORNING #3640
Description: Antifungal activity against Cryptococcus neoformans H99 ATCC 208821 (CO-ADD:FG_002); MIC in YNB media using NBS plates, by Resazurin OD(600-570)
Entries with a potency or affinity are not part of this list.

[
  {
    "Compound": "CC(NC(=O)c1ncc([N+](=O)[O-])n1C)c1ccc(F)cc1 (centres undefined)",
    "Experimental Target": "Cryptococcus neoformans",
    "Inhibition [%]": -25.7
  },
  {
    "Compound": "Cn1c([N+](=O)[O-])cnc1C(=O)N1CCOCC1",
    "Experimental Target": "Cryptococcus neoformans",
    "Inhibition [%]": -21.61
  },
  {
    "Compound": "Cn1c([N+](=O)[O-])cnc1C(=O)NCc1cccc(OC(F)(F)F)c1",
    "Experimental Target": "Cryptococcus neoformans",
    "Inhibition [%]": -18.54
  },
  {
    "Compound": "Cn1c([N+](=O)[O-])cnc1C(=O)NCc1ccc(OC(F)(F)F)cc1",
    "Experimental Target": "Cryptococcus neoformans",
    "Inhibition [%]": 2.62
  },
  {
    "Compound": "Cn1c([N+](=O)[O-])cnc1C(=O)NC1CC1",
    "Experimental Target": "Cryptococcus neoformans",
    "Inhibition [%]": -21.85
  },
  {
    "Compound": "Cn1c([N+](=O)[O-])cnc1C(=O)N1CCCC1",
    "Experimental Target": "Cryptococcus neoformans",
    "Inhibition [%]": -19.05
  },
  {
    "Compound": "Cc1ccc(CCNC(=O)c2ncc([N+](=O)[O-])n2C)cc1",
    "Experimental Target": "Cryptococcus neoformans",
    "Inhibition [%]": -8.7
  },
  {
    "Compound": "Cn1c([N+](=O)[O-])cnc1C(=O)NCc1ccc(F)cc1",
    "Experimental Target": "Cryptococcus neoformans",
    "Inhibition [%]": -24.39
  },
  {
    "Compound": "Cn1c([N+](=O)[O-])cnc1C(=O)NCc1ccccn1.O=C(O)C(F)(F)F",
    "Experimental Target": "Cryptococcus neoformans",
    "Inhibition [%]": -18.89
  }
]
